# ASSAY_TARGET: Histone deacetylase
# ASSAY_NAME: Inhibition of human liver HDAC
Values of IC50 strictly less than 0.1 µM map to Criterion met, and values of at least 0.1 µM map to Criterion not met.

>>> cat("O=C(CCCCC[S+]([O-])c1ccccc1)NO (configuration not stated)")
"Criterion met"
>>> cat("O=C(CCCCCSc1ccc(NS(=O)(=O)c2ccc(Cl)cc2)cc1)NO")
"Criterion not met"
>>> cat("O=C(CCCCCS(=O)(=O)c1ccccc1)NO")
"Criterion met"
>>> cat("CN(C)c1ccc([S+]([O-])CCCCCC(=O)NO)cc1 (configuration not stated)")
"Criterion not met"
>>> cat("O=C(CCCCCSc1ccccc1)NO")
"Criterion not met"
>>> cat("O=C(CCCCCC[S+]([O-])c1ccc(Cl)cc1)NO (configuration not stated)")
"Criterion not met"

# next compound below
Data request: Does this compound meet the criterion IC50 < 0.1 µM? O=C(CCCCCSc1ccc(Cl)cc1)NO
Data returned: Criterion not met

* * *

# Tested on: SK-BR-3
# ASSAY_NAME: Antiproliferative activity against human SKBR3 cells
# Format: functional, cell-based
Kindly supply the reported log10 IC50 values for the records listed here.
Values reflect log10 of reported IC50 (nM).

These recorded examples may help you get a feel for the data.
>>> result_value("CN(C)c1ccc(C(=O)NCc2ccc(/C=C/C(=O)NO)cc2)cc1")
2.20
>>> result_value("Nc1ccccc1NC(=O)c1ccc(CNC(=O)OCc2cccnc2)cc1 [ENTINOSTAT]")
2.94
>>> result_value("O=C(/C=C/c1ccc(CNC(=O)c2cccnc2)cc1)NO")
3.11
>>> result_value("CC(/C=C/C(=O)NO)=C\\[C@@H](C)C(=O)c1ccc(N(C)C)cc1 [TRICHOSTATIN]")
1.30
>>> result_value("O=C(/C=C/c1ccc(CNC(=O)c2ccc(N3CCCC3)cc2)cc1)NO")
2.04
>>> result_value("Cn1cc(CN(CCO)Cc2ccc(C(=O)Nc3ccccc3N)cc2)c2ccccc21")
3.84

Provide log10 IC50 for all items below, preserving their order.
1. O=C(CCCCCCC(=O)Nc1ccccc1)NO [VORINOSTAT]
2. COc1ccc(CN(CCO)Cc2ccc(C(=O)Nc3ccccc3N)cc2)cc1
3. Nc1ccccc1NC(=O)c1ccc(CN(CCO)Cc2ccc(F)c(F)c2)cc1

Data returned:
[2.90, 3.53, 3.56]

* * *

# ASSAY_NAME: Metabolic stability in human liver microsomes
# Type: ADME, Microsome
MEASURE_NAME: microsomal CLint

>>> result_value("CC(=O)CCCCC[C@H](NC1CCCCN1C)C(=O)Nc1nc(-c2ccccc2)cs1 (some centres not stated)")
"54 µL/min/mg"

Data request: Tell me the measured microsomal CLint of COc1ccc2[nH]c(C)c(CC(=O)N[C@@H](CCCCCC(C)=O)C(=O)NCCc3c(-c4ccccc4)[nH]c4ccccc34)c2c1 , please.
Data returned: > 300 µL/min/mg

* * *

# Test system: HT-1080
# ASSAY_NAME: Inhibition of human HT1080 cells
# Type: functional, cell-based
Kindly supply the reported IC50 values for the records listed here.
Give bare numbers, in µM.

>>> result_value("COc1ccc(-c2cnc(CCCCCCC(=O)NO)o2)cc1")
0.31
>>> result_value("COc1ccc(-c2csc(CCCCCCC(=O)NO)n2)cc1")
3.63
>>> result_value("O=C(CCCCCCc1cnc(-c2ccc(OC(F)(F)F)cc2)o1)NO")
5.14

Provide IC50 for all items below, preserving their order.
1. CNC(=O)C(=O)CCCCCCC(=O)Nc1nc(-c2cccnc2)cs1
2. O=C(CCCCCCc1nc(-c2cccc(Br)c2)cs1)NO
3. O=C(CCCCCCc1nc(-c2ccc(C(F)(F)F)cc2)cs1)NO
4. O=C(CCCCCCc1ncc(-c2ccc(Br)cc2)o1)NO
5. O=C(CCCCCCc1ncc(-c2ccccc2)o1)NO
6. O=C(CCCCCCc1nc(-c2ccc3ccccc3c2)cs1)NO
7. CNC(=O)C(=O)CCCCCCC(=O)Nc1cccc(-c2ccccc2)c1
8. COc1cccc(OC)c1-c1csc(CCCCCCC(=O)NO)n1

Data returned:
1. 0.67
2. 10.1
3. 2.39
4. 7.7
5. 8.41
6. 2.39
7. 6.9
8. 2

Data request: Tell me the measured IC50 of O=C(CCCCCCc1nc(-c2ccc(-c3ccccc3)cc2)cs1)NO , please.
Data returned: 1.32
